# System: endogenous proteases
# measurement_notes: Stability of synthetic BNP-32 spiked into normal human plasma with protease inhibitors (chemiluminescent BNP immunoassay)
# Format: biochemical
This section presents molecules with their documented % Recovery vs 1st run (Time 0) values.
All answers are understood in %, so give the number only.

• CC(=O)N[C@@H](CC(C)C)C(=O)N[C@@H](CC(C)C)C(=O)N[C@H](C=O)CCCNC(=N)N [leupeptin, acetyl-leu-leu-arginal] = 105.5
• NC(N)=NCCC[C@H](NC(=O)[C@@H]1CCCN1C(=O)[C@H](N)Cc1ccccc1)C(=O)CCl [PPRACK, D-Phe-Pro-Arg-chloromethylketone] = 100.5
• NCCc1ccc(S(=O)(=O)F)cc1 [AEBSF, 4-(2-aminoethyl)benzenesulfonylfluoride] = 85.2

Exercise: Item under review: N=C(N)c1ccccc1 [benzamidine] . Reported % Recovery vs 1st run (Time 0)?
Key: 82.6
